For each entry below, report its FcγRIIIa Fold value.
Molecular target: extracellular region of human V158 FcγRIIIa fused with glutathione S-Transferase (GST) (human, UniProt P08637 17-208)
Sequence (P08637 17-208 F176V): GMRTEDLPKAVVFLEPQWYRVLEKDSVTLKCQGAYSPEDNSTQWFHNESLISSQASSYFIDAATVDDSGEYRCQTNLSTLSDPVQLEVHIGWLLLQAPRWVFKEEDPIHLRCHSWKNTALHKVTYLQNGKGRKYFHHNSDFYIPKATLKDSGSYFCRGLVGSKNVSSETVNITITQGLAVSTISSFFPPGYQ
Test: AlphaScreen competition
Give bare numbers, in fold vs WT.

The examples below pair each entry with its known result.
### Prompt Please look up its FcγRIIIa Fold: S239D/D265Y/N297D/I332E alemtuzumab (antibody) heavy: DKTHTCPPCPAPELLGGPDVFLFPPKPKDTLMISRTPEVTCVVVYVSHEDPEVKFNWYVDGVEVHNAKTKPREEQYDSTYRVVSVLTVLHQDWLNGKEYKCKVSNKALPAPEEKTISKAKGQPREPQVYTLPPSRDELTKNQVSLTCLVKGFYPSDIAVEWESNGQPENNYKTTPPVLDSDGSFFLYSKLTVDKSRWQQGNVFSCSVMHEALHNHYTQKSLSLSPGK
### Response 0.02

### Prompt Note, next up: S239D/A330Y/I332E/V240I trastuzumab (antibody) heavy: DKTHTCPPCPAPELLGGPDIFLFPPKPKDTLMISRTPEVTCVVVDVSHEDPEVKFNWYVDGVEVHNAKTKPREEQYNSTYRVVSVLTVLHQDWLNGKEYKCKVSNKALPYPEEKTISKAKGQPREPQVYTLPPSRDELTKNQVSLTCLVKGFYPSDIAVEWESNGQPENNYKTTPPVLDSDGSFFLYSKLTVDKSRWQQGNVFSCSVMHEALHNHYTQKSLSLSPGK
### Response 28

Others:
### Prompt Please look up its FcγRIIIa Fold: S239D/I332E/A330I trastuzumab (antibody) heavy: DKTHTCPPCPAPELLGGPDVFLFPPKPKDTLMISRTPEVTCVVVDVSHEDPEVKFNWYVDGVEVHNAKTKPREEQYNSTYRVVSVLTVLHQDWLNGKEYKCKVSNKALPIPEEKTISKAKGQPREPQVYTLPPSRDELTKNQVSLTCLVKGFYPSDIAVEWESNGQPENNYKTTPPVLDSDGSFFLYSKLTVDKSRWQQGNVFSCSVMHEALHNHYTQKSLSLSPGK
### Response 59.1
